method-notes: PSAC antagonists in infected red cells, primary screen, cell-based, P. falciparum Indochina, OD700, 1 h (AID 1154)
condition-notes: P. falciparum Indochina infected RBC osmotic lysis, higher = more signal, called active from +8 up or from −8 down
measured-endpoint: z-score

>>> quantitative_readout("Cc1ccc(N2C(=O)c3ccccc3[C@@H](C(=O)NCCN3CCOCC3)[C@@H]2c2ccc(CO)cc2)nc1")
0.443
>>> quantitative_readout("CO[C@H]1O[C@H](CO)[C@@H](OC(=O)Nc2ccccc2)[C@@H]2OC(=O)[C@@H](Cc3ccccc3)C/C=C/C[C@H](Cc3ccccc3)C(=O)O[C@@H]12")
0.131
>>> quantitative_readout("C=CCOC(=O)[C@H]1[C@@H]2C(=O)O[C@@H](c3ccccc3)[C@@H](c3ccccc3)N2[C@@H](c2ccc(OCCOC(=O)[C@@H]3C[C@@H]4C(=O)N[C@@H](Cc5ccccc5)C(=O)N4[C@@H]3c3ccc(O)cc3)cc2)[C@]12C(=O)Nc1ccc(I)cc12")
4.04
>>> quantitative_readout("CCN1C(=O)C2CC(=O)C3C(CN(S(=O)(=O)c4ccc(C)cc4)C3c3ccc(C)cc3)C2C1=O (stereo not drawn)")
1.04
>>> quantitative_readout("O=C1c2ccccc2[C@@]2(Cc3ccccc3N(CC(F)(F)F)C2=O)[C@H](c2ccc(CO)cc2)N1Cc1ccccc1")
-0.0567
>>> quantitative_readout("COc1ccc([Si](C)(C)[C@H]2[C@H](CC(=O)N(CCO)Cc3ccccc3)O[C@@]3(C(=O)N(c4ccccc4)c4ccccc43)[C@@H]2C)cc1")
26.5
>>> quantitative_readout("C=C(C(=O)CC[C@@H](OC(=O)c1ccccc1-c1ccccc1C(=O)O)c1ccc(CO)o1)C(C)C")
0.897
>>> quantitative_readout("COCCOC(=O)N1C(=O)[C@@]2(c3cc(C#CCNC(N)=O)ccc31)[C@H](c1ccccc1OCCO)N1[C@H](c3ccccc3)[C@H](c3ccccc3)OC(=O)[C@H]1[C@@H]2C(=O)N1CCCCCCC1")
1.21
>>> quantitative_readout("CC(C)c1ccc(NN2C(C(O)C3=C[C@H]4C[C@@H](C3)C4(C)C)C=CC3C(=O)N(c4ccccc4)C(=O)C32)cc1 (stereo partly drawn)")
1.8
>>> quantitative_readout("COC(=O)C(CC#Cc1ccc2c(c1)[C@]1(C(=O)N2)[C@H](C(N)=O)[C@H]2C(=O)O[C@H](c3ccccc3)[C@H](c3ccccc3)N2[C@@H]1c1ccccc1OCCO)C(=O)OC")
14.2
>>> quantitative_readout("CC(C)C[C@@H]1NC(=O)[C@H]2C[C@@H](C(=O)O)[C@@H](c3cccc(OCCO)c3)N2C1=O")
6.12
>>> quantitative_readout("COc1ccc([Si](C)(C)[C@H]2[C@H](CCO)O[C@@]3(C(=O)N(Cc4ccccc4)c4ccc(NC(=O)[C@H](C)O)cc43)[C@@H]2C)cc1")
10.8
>>> quantitative_readout("COc1ccc(CCNC(=O)[C@@]2(c3ccc([N+](=O)[O-])cc3)CC(=O)N(C3CCCCC3)[C@@H]2c2ccc(CO)cc2I)cc1")
11.9
